Biological target: CDK2/Cyclin E1 (Homo sapiens, UniProt P24941)
Test: CDK2/Cyclin E1 Biochemical Assay (TR-FRET), 0.060 mM ATP
Conditions: 0.15 μM Rb (Ser780)-biotin substrate, pH7.0, 60 min preincubation, 120 min reaction, room temperature
pIC50: −log10 of the molar value.

| Compound | pIC50 |
| --- | --- |
| COCC1(NC(=O)O[C@H]2CC[C@@H](c3cc(Nc4ccc5c(c4)CS(=O)(=O)N5C)n[nH]3)C2)CC1 (relative stereo) | 8.03 |
| [2H]C([2H])([2H])N1c2c(F)cc(Nc3cc([C@@H]4CC[C@H](OC(=O)NC(C)C)C4)[nH]n3)cc2CS1(=O)=O (single isomer, unassigned) [Example 289b] | 7.92 |
| CC1(NC(=O)O[C@H]2CC[C@@H](c3cc(Nc4ccc5c(c4F)CNS5(=O)=O)n[nH]3)C2)COC1 (single isomer, unassigned) [Example 164b] | 8.08 |
| CC(C)NC(=O)O[C@H]1CC[C@@H](c2cc(Nc3cnc4c(c3)CNS4(=O)=O)n[nH]2)C1 (relative stereo) | 8.15 |
| CC1(NC(=O)O[C@H]2CC[C@@H](c3cc(Nc4cc5c(cc4F)N(CCO)S(=O)(=O)C5)n[nH]3)C2)CC1 (relative stereo) | 8.05 |
| CC(C)NC(=O)O[C@H]1CC[C@@H](c2cc(Nc3ccc4c(c3)C(C)S(=O)(=O)N4C)n[nH]2)C1 (relative stereo) | 8.18 |

====

Molecular target: CDK2/Cyclin E1 (Homo sapiens)
Assay: CDK2/Cyclin E1 Biochemical Assay (TR-FRET), 0.060 mM ATP
Conditions: 0.15 μM Rb (Ser780)-biotin substrate, pH7.0, 60 min preincubation, 120 min reaction, room temperature
pIC50: −log10 of the molar value.

| Compound | pIC50 |
| --- | --- |
| CCCNC(=O)O[C@H]1CC[C@@H](c2cc(Nc3ccc4c(c3)CS(=O)(=O)N4)n[nH]2)C1 [Example 195b] | 7.77 |
| CN1c2ccc(Nc3cc([C@@H]4CC[C@H](OC(=O)NC5CCC5)C4)[nH]n3)cc2CS1(=O)=O (single isomer, unassigned) [Example 227a] | 8.46 |
| CC(C)NC(=O)O[C@H]1CC[C@@H](c2cc(Nc3ccc4c(c3F)CN(C3CCN(C)C(=O)C3)S4(=O)=O)n[nH]2)C1 (relative stereo) [Example 100] | 8.28 |
| CC[C@H](C)NC(=O)O[C@H]1CC[C@@H](c2cc(Nc3ccc4c(c3F)C(C)NS4(=O)=O)n[nH]2)C1 (single isomer, unassigned) [Example 54c] | 9.52 |
| CC(C)NC(=O)O[C@H]1CC[C@@H](c2cc(Nc3ccc4c(c3F)CS(=O)(=O)N4)n[nH]2)C1 (racemic) [Example 251] | 9.40 |
| CC(C)(C)NC(=O)O[C@@H]1CC[C@H](c2cc(Nc3cc4c(cc3F)S(=O)(=O)NC4)n[nH]2)C1 (single isomer, unassigned) [Example 395a] | 8.80 |
| CC(C)NC(=O)O[C@H]1CC[C@@H](c2cc(Nc3ccc4c(c3F)CN(C3COC3)S4(=O)=O)n[nH]2)C1 (single isomer, unassigned) [Example 133b] | 8.07 |
| CC(NC(=O)O[C@H]1CC[C@@H](c2cc(Nc3cc4c(cc3F)S(=O)(=O)NC4)n[nH]2)C1)C1CC1 (relative stereo) [Example 413] | 8.46 |
| CC(C)NC(=O)O[C@H]1CC[C@@H](c2cc(Nc3ccc4c(c3F)C(C)(C)NS4(=O)=O)n[nH]2)C1 (relative stereo) [Example 55] | 7.15 |
| O=C(NCCC(F)(F)F)O[C@H]1CC[C@@H](c2cc(Nc3ccc4c(c3F)CNS4(=O)=O)n[nH]2)C1 (single isomer, unassigned) [Example 154b] | 8.46 |

====

Property: pIC50; scope: individual compounds
Target: CDK2/Cyclin E1 (Homo sapiens, UniProt P24941)
Assay: CDK2/Cyclin E1 Biochemical Assay (TR-FRET), 0.060 mM ATP
Conditions: 0.15 μM Rb (Ser780)-biotin substrate, pH7.0, 60 min preincubation, 120 min reaction, room temperature
pIC50: −log10 of the molar value.
Outcome measure: pIC50

| Compound | Outcome measure | Result number |
| --- | --- | --- |
| CC(C)NC(=O)O[C@H]1CC[C@@H](c2cc(Nc3ccc4c(c3F)CS(=O)(=O)N4CC(C)(C)O)n[nH]2)C1 (racemic) | pIC50 | 8.00 |
| C[C@@H](CO)NC(=O)O[C@H]1CC[C@@H](c2cc(Nc3ccc4c(c3F)CNS4(=O)=O)n[nH]2)C1 (single isomer, unassigned) [Example 328a] | pIC50 | 8.00 |
| CCCNC(=O)O[C@H]1CC[C@@H](c2cc(Nc3ccc4c(c3F)C(C)NS4(=O)=O)n[nH]2)C1 (single isomer, unassigned) [Example 53c] | pIC50 | 7.82 |

====

Target: CDK2/Cyclin E1 (Homo sapiens)
Experiment: CDK2/Cyclin E1 Biochemical Assay (TR-FRET), 1 mM ATP
Conditions: 0.15 μM Rb (Ser780)-biotin substrate, pH7.0, 60 min preincubation, 90 min reaction, room temperature
Outcome measure: IC50 (nM)

| Molecule | Experimental target | Result number |
| --- | --- | --- |
| O=C(NC12CC(C1)C2)O[C@H]1CC[C@@H](c2cc(Nc3cc4c(cc3F)S(=O)(=O)NC4)n[nH]2)C1 (single isomer, unassigned) [Example 422b] | CDK2/Cyclin E1 (Homo sapiens) | 1 |
| CC1(NC(=O)O[C@H]2CC[C@@H](c3cc(Nc4ccc5c(c4F)CCS(=O)(=O)N5)n[nH]3)C2)CC1 (relative stereo) | CDK2/Cyclin E1 (Homo sapiens) | 0.7 |
| CC(C)(CO)NC(=O)O[C@H]1CC[C@@H](c2cc(Nc3ccc4c(c3F)CN(C3CC3)S4(=O)=O)n[nH]2)C1 (single isomer, unassigned) [Example 359a] | CDK2/Cyclin E1 (Homo sapiens) | 14 |

====

Biological target: CDK1/Cyclin B1 (Homo sapiens, UniProt P06493)
Sequence (P06493 whole entry): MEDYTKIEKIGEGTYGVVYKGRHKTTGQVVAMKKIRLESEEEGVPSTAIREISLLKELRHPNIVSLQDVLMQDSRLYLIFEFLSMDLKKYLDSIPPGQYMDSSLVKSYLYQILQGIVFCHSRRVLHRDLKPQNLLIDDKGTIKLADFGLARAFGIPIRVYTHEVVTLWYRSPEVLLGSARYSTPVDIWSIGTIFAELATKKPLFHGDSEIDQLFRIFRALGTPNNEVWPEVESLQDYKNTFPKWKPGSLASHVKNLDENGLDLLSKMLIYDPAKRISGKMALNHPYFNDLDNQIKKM
Sequence (P14635 whole entry partner): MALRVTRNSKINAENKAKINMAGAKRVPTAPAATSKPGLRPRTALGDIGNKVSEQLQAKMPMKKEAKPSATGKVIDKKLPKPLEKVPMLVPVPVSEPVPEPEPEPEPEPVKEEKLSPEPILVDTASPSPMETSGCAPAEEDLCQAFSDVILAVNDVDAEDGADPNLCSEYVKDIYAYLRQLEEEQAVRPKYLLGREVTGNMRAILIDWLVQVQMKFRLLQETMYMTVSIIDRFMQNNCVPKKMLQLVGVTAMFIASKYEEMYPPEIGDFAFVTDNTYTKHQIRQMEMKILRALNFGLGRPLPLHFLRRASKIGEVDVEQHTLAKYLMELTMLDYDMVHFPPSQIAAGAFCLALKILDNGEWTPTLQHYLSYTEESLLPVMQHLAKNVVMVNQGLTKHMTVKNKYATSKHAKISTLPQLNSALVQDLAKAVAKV
Test: CDK1/Cyclin B1 Biochemical Assay (TR-FRET), 0.015 mM ATP
Settings: 0.15 μM Rb (Ser780)-biotin substrate, pH7.0, 60 min preincubation, 120 min reaction, room temperature
pIC50: −log10 of the molar value.

| Compound | pIC50 |
| --- | --- |
| CC(NC(=O)O[C@H]1CC[C@@H](c2cc(Nc3cc4c(cc3F)S(=O)(=O)NC4)n[nH]2)C1)C1CC1 (relative stereo) [Example 413] | 6.39 |
| CC(C)NC(=O)O[C@H]1CC[C@@H](c2cc(Nc3ccc4c(c3F)CN(C)S4(=O)=O)n[nH]2)C1 (single isomer, unassigned) [Example 121b] | 6.89 |
| CC(C)NC(=O)O[C@H]1CC[C@@H](c2cc(Nc3ccc4c(c3)NS(=O)(=O)C4(C)C)n[nH]2)C1 (relative stereo) [Example 304] | 6.60 |
| CC1NS(=O)(=O)c2ccc(Nc3cc([C@@H]4CC[C@H](OC(=O)NC5(C)CC5)C4)[nH]n3)c(F)c21 (single isomer, unassigned) [Example 52b] | 6.82 |
| COCC1(NC(=O)O[C@H]2CC[C@@H](c3cc(Nc4ccc5c(c4)CS(=O)(=O)N5C)n[nH]3)C2)CC1 (relative stereo) [Example 228] | 6.91 |

====

Property: pIC50; scope: individual molecules
Target: CDK2/Cyclin E1 (Homo sapiens)
Test: CDK2/Cyclin E1 Biochemical Assay (TR-FRET), 0.060 mM ATP
Settings: 0.15 μM Rb (Ser780)-biotin substrate, pH7.0, 60 min preincubation, 120 min reaction, room temperature
pIC50: −log10 of the molar value.

| Molecule | pIC50 |
| --- | --- |
| CC(C)NC(=O)O[C@H]1CC[C@@H](c2cc(Nc3ccc4c(c3F)C(F)(F)S(=O)(=O)N4)n[nH]2)C1 (relative stereo) | 6.79 |
| [2H]C([2H])([2H])N1c2c(F)cc(Nc3cc([C@@H]4CC[C@H](OC(=O)NC(C)C)C4)[nH]n3)cc2CS1(=O)=O (single isomer, unassigned) [Example 289a] | 8.00 |
| COCC(C)(C)NC(=O)O[C@H]1CC[C@@H](c2cc(Nc3ccc4c(c3)CS(=O)(=O)N4C)n[nH]2)C1 (relative stereo) | 9.15 |
| CCCNC(=O)O[C@H]1CC[C@@H](c2cc(Nc3ccc4c(c3F)CN(C)S4(=O)=O)n[nH]2)C1 (single isomer, unassigned) [Example 122b] | 8.06 |
| CC(C)NC(=O)O[C@H]1CC[C@@H](c2cc(Nc3ccc4c(c3)CS(=O)(=O)N4CC(C)(C)O)n[nH]2)C1 (relative stereo) | 8.11 |
